Test system: Pantoea dispersa
Assay Method Text: Antibacterial activity against Pantoea dispersa at 1 mg/ml after 24 hr by agar well diffusion assay
Format: functional
Assay Setup: read-out: IZ
Entries and their zone of inhibition at 1000 µg/mL
Please reply with the bare figure in mm and do not write the unit itself.

# Structure Smiles, U, Readout Number
measured = [
    ("CC1(C)S[C@@H]2[C@H](NC(=O)[C@H](N)c3ccccc3)C(=O)N2[C@H]1C(=O)O", "mm", 20),
    ("Cc1ccc(OC(=O)c2cc(-c3cc4ccccc4o3)nc3ccccc23)cc1", "mm", 13),
    ("O=C(Oc1ccccc1)c1cc(-c2cc3ccccc3o2)nc2ccccc12", "mm", 18),
    ("O=C(Oc1ccc(Cl)cc1Cl)c1cc(-c2cc3ccccc3o2)nc2ccccc12", "mm", 16),
    ("O=C(Oc1ccc2ccccc2c1)c1cc(-c2cc3ccccc3o2)nc2ccccc12", "mm", 12),
]

**Query** Any idea what zone of inhibition at 1000 µg/mL was measured for `O=C(c1cc(-c2cc3ccccc3o2)nc2ccccc12)N1CCCCC1` ?
**Result** 10

**Query** Also, `O=C(Oc1c(Cl)cc(Cl)cc1Cl)c1cc(-c2cc3ccccc3o2)nc2ccccc12` please.
**Result** 14

**Query** What about this compound? `O=C(Oc1ccccc1Cl)c1cc(-c2cc3ccccc3o2)nc2ccccc12`
**Result** 16

**Query** Okay, and `O=C(Oc1ccc(Br)cc1)c1cc(-c2cc3ccccc3o2)nc2ccccc12` ?
**Result** 14

**Query** And the next one, `Cc1nccn1C(=O)c1cc(-c2cc3ccccc3o2)nc2ccccc12` ?
**Result** 15

**Query** Here is the next compound: `O=C(c1cc(-c2cc3ccccc3o2)nc2ccccc12)N1CCOCC1`
**Result** 13

**Query** Next compound: `O=C(Oc1cccc2ccccc12)c1cc(-c2cc3ccccc3o2)nc2ccccc12`
**Result** 15

**Query** Similarly, `Cc1ccccc1OC(=O)c1cc(-c2cc3ccccc3o2)nc2ccccc12` ?
**Result** 19

**Query** Another compound to look at: `O=C(Oc1ccc(Cl)cc1)c1cc(-c2cc3ccccc3o2)nc2ccccc12`
**Result** 18

====

Test system: Enterococcus
Assay Method Text: Antibacterial activity against Enterococcus at 1 mg/ml after 24 hr by agar well diffusion assay
Type: functional
Assay Setup: read-out: IZ
Measured zone of inhibition at 1000 µg/mL values are reported for all entries that follow.
Numbers only; they are read as mm.

# Structure Smiles, zone of inhibition at 1000 µg/mL (mm)
rows = [
    ("O=C(Oc1ccc(Cl)cc1)c1cc(-c2cc3ccccc3o2)nc2ccccc12", 14),
    ("O=C(Oc1ccccc1)c1cc(-c2cc3ccccc3o2)nc2ccccc12", 12),
    ("Cc1nccn1C(=O)c1cc(-c2cc3ccccc3o2)nc2ccccc12", 9),
]

**Query** Tell me the measured zone of inhibition at 1000 µg/mL of `Cc1ccc(OC(=O)c2cc(-c3cc4ccccc4o3)nc3ccccc23)cc1` , please.
**Result** 19

**Query** And the next one, `O=C(Oc1cccc2ccccc12)c1cc(-c2cc3ccccc3o2)nc2ccccc12` ?
**Result** 13

**Query** And for `O=C(Oc1ccc2ccccc2c1)c1cc(-c2cc3ccccc3o2)nc2ccccc12` ?
**Result** 10

**Query** Please give the result for `O=C(Oc1ccc(Br)cc1)c1cc(-c2cc3ccccc3o2)nc2ccccc12` too.
**Result** 16

**Query** Can you check `O=C(Oc1ccc(Cl)cc1Cl)c1cc(-c2cc3ccccc3o2)nc2ccccc12` next?
**Result** 11

**Query** Param item: `O=C(c1cc(-c2cc3ccccc3o2)nc2ccccc12)N1CCCCC1`
**Result** 7

**Query** Moving on to `O=C(c1cc(-c2cc3ccccc3o2)nc2ccccc12)N1CCOCC1`
**Result** 13

**Query** Field entry: `CC1(C)S[C@@H]2[C@H](NC(=O)[C@H](N)c3ccccc3)C(=O)N2[C@H]1C(=O)O`
**Result** 24
